System: HBeAg
Assay explanation: PHH natural infection assay, HBeAg (alphalisa)
Type: cell-based, HBV
Conditions: Hepatitis B virus, Hepatocyte, 72 h, read-out: HBeAg IC50
Task for the reader: assign each of the following compounds its reported pIC50.
Bear in mind: pIC50 is minus log10 of a mol/L concentration; give just that figure.

For the compound shown here, Nc1ccc2nn(-c3ccc(F)cc3)nc2c1 , give the reported pIC50. 5.28

Same question for O=C(Nc1ccc2nn(-c3ccc(F)cc3)nc2c1)C1CCCCO1 (stereo not drawn) please. 5.21

Moving on to the next compound: COCCNc1ccc2nn(-c3cccc(OC)c3)nc2c1 4.81

What about Clc1ccc(-n2nc3ccc(NCC4CC4)cc3n2)cc1 ? 5.12

Try this compound too: O=C(Nc1ccc2nn(-c3ccc(Cl)cc3)nc2c1)C1CCCCO1 (stereo not drawn) 5.94

Note, next up: Fc1ccc(-n2nc3ccc(NCC4CCOC4)cc3n2)cc1 (stereo not drawn) 5.14

Note, next up: Cc1nc(Nc2ccc3nn(-c4ccc(Cl)cc4)nc3c2)sc1C 5.54

And the next one, COc1ccc(-n2nc3ccc(N)cc3n2)cc1 ? 5.77

Note, next up: COCCNc1ccc2nn(-c3ccc(Cl)cc3)nc2c1 5.63

Another compound: O=C(Nc1ccc2nn(-c3ccc(Cl)cc3)nc2c1)C1CCOC1 (stereo not drawn) 5.51

Check Cc1cc2nn(-c3ccc(Cl)cc3)nc2cc1NC(N)=S too. 5.64

Could you do the same for Cc1cc2nn(-c3ccc(Cl)cc3)nc2cc1NC(=S)NC(=O)c1ccccc1 , please? 5.52

Continue with Clc1ccc(-n2nc3ccc(NC4CCC4)cc3n2)cc1 5.03

Field entry: Clc1ccc(-n2nc3ccc(NCC4CCOC4)cc3n2)cc1 (stereo not drawn) 5.12

Another compound to look at: O=C(CC(F)(F)F)Nc1ccc2nn(-c3ccc(F)cc3)nc2c1 4.93

Could you do the same for CCN(C)c1ccc2nn(-c3ccc(Cl)cc3)nc2c1 , please? 5.35

Request: CCCNc1ccc2nn(-c3ccc(Cl)cc3)nc2c1 5.40

Another compound to look at: CC(=O)Nc1ccc2nn(-c3ccc(Cl)cc3)nc2c1 5.26

And for Clc1ccc(-n2nc3ccc(NCC4CCCC4)cc3n2)cc1 ? 5.51

Now the compound Cc1csc(Nc2ccc3nn(-c4ccc(Cl)cc4)nc3c2)n1 5.52

What do you have for CCN(CC)c1ccc2nn(-c3ccc(Cl)cc3)nc2c1 ? 5.60

Next compound: CNC(=O)CCNc1ccc2nn(-c3ccc(Cl)cc3)nc2c1 5.06

Also, CCS(=O)(=O)c1ccc(-n2nc3ccc(N)cc3n2)cc1 please. 5.20

Same again, this time with O=C(CC(F)(F)F)Nc1ccc2nn(-c3ccc(Cl)cc3)nc2c1 5.78

Next entry: CNC(=S)Nc1ccc2nn(-c3ccc(Cl)cc3)nc2c1 5.34

Next entry: O=C(NC(=S)Nc1ccc2nn(-c3ccc(Cl)cc3)nc2c1)C1CCCC1 5.12

Further, for COCCS(=O)(=O)c1ccc(-n2nc3ccc(N)cc3n2)cc1 ? 5.10

Entry Clc1ccc(-n2nc3ccc(NCC4CCCO4)cc3n2)cc1 (stereo not drawn) please 4.93

Proceed to O=C(NC(=S)Nc1ccc2nn(-c3ccc(Cl)cc3)nc2c1)c1ccccc1 5.90

Now the compound Nc1ccc2nn(-c3ccc(Cl)cc3)nc2c1 5.28

Cool, now O=C(Nc1ccc2nn(-c3ccc(Cl)cc3)nc2c1)C1CCCCC1 5.54

Entry to check: O=C(Nc1ccc2nn(-c3ccc(F)cc3)nc2c1)C1CCOC1 (stereo not drawn) 5.17

Same question, Clc1ccc(-n2nc3ccc(NC4CCCC4)cc3n2)cc1 this time 4.93

Moving on to the next compound: COCCNc1ccc2nn(-c3ccc(S(C)(=O)=O)cc3)nc2c1 5.16

Now consider COCCN(C)c1ccc2nn(-c3ccc(Cl)cc3)nc2c1 and answer again. 5.46

Now consider O=C(Nc1ccc2nn(-c3ccc(F)cc3)nc2c1)C1CCOCC1 . 5.64

Proceed to O=C(Nc1ccc2nn(-c3ccc(Cl)cc3)nc2c1)C1CCCC1 5.89

Follow-up item: COc1cccc(-n2nc3ccc(N)cc3n2)c1 5.39

Similarly, COCCCNc1ccc2nn(-c3ccc(F)cc3)nc2c1 ? 5.19
